Task for the reader: assign each of the following compounds its reported residual activity.
target or test system: HIPK2 (human) (UniProt Q9H2X6)
Sequence (Q9H2X6 whole entry, looked up): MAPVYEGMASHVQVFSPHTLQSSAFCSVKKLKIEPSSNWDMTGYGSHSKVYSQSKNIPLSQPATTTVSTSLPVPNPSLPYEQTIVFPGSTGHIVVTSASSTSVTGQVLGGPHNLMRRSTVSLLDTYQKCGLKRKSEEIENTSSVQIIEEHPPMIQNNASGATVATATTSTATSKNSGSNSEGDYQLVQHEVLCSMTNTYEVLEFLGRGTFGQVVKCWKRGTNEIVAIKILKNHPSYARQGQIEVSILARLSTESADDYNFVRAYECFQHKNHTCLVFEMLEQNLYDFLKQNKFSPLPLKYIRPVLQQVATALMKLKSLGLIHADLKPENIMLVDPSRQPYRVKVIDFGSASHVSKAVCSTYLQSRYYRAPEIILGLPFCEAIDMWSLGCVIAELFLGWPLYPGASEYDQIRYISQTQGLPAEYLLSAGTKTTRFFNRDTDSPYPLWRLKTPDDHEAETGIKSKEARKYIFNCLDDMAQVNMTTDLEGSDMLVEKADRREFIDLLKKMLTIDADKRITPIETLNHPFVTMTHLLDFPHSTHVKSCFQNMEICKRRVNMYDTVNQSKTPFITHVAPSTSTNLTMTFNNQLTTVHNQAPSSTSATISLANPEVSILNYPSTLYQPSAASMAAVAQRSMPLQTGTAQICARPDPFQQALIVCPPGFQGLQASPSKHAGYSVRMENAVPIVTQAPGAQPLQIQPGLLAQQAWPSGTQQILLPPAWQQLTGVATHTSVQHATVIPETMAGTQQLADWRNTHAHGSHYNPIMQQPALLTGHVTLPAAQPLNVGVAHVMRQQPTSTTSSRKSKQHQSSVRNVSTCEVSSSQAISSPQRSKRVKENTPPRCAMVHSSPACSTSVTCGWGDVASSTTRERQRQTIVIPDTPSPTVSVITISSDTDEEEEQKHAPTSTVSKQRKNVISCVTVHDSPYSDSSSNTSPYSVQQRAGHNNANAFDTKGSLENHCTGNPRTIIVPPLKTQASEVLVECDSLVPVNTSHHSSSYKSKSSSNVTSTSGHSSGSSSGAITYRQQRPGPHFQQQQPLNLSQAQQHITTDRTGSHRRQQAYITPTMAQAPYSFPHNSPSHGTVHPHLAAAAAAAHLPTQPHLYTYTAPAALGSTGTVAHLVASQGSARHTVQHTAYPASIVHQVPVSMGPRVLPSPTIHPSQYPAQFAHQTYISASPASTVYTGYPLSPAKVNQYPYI
test method notes: radiometric filter-binding kinase assay, Kinase HotSpot
condition context: compound 0.5 µM; ATP 10 µM
Field format: number, assumed %, no unit text.

Report residual activity for COc1cc2ncc(-c3ccccc3)nc2cc1OC tested on HIPK2 (human) (UniProt Q9H2X6). 78.7

Report residual activity for Nc1nccc(-c2c(-c3ccc(F)cc3)ncn2C2CCNCC2)n1 tested on HIPK2 (human) (UniProt Q9H2X6). 106

Report residual activity for Oc1ccc(Nc2nc(-c3ccc(Cl)cc3)cs2)cc1 tested on HIPK2 (human) (UniProt Q9H2X6). 90.9

Report residual activity for Cn1cnc2cc3c(Nc4cccc(Br)c4)ncnc3cc21 tested on HIPK2 (human) (UniProt Q9H2X6). 106

Report residual activity for Nc1nnc2[nH]c3ccccc3nc1-2 tested on HIPK2 (human) (UniProt Q9H2X6). 95.9

Report residual activity for CC(C)[C@H](CO)Nc1nc(Nc2cc(N)cc(Cl)c2)c2ncn(C(C)C)c2n1 tested on HIPK2 (human) (UniProt Q9H2X6). 94.3

Report residual activity for COc1cc2ncnc(N3CCN(C(=O)Nc4ccc(Oc5ccccc5)cc4)CC3)c2cc1OC tested on HIPK2 (human) (UniProt Q9H2X6). 82.8

Report residual activity for O=C1NC(=O)C(c2cn(CCCO)c3ncccc23)=C1c1cnccn1 tested on HIPK2 (human) (UniProt Q9H2X6). 96.6

Report residual activity for O=C(CCCc1ccc(-c2ccccc2F)cc1)Nc1ccc(O)cc1 tested on HIPK2 (human) (UniProt Q9H2X6). 112

Report residual activity for Cn1nc2c3c(cccc31)C(=O)c1ccccc1-2 tested on HIPK2 (human) (UniProt Q9H2X6). 105

Report residual activity for O=C1Cc2c([nH]c3ccc(Br)cc23)-c2ccccc2N1 tested on HIPK2 (human) (UniProt Q9H2X6). 107

Origin of the recorded values: the kinase profiling compilation of Christmann-Franck et al. (2016)
